Experiment: inhibitors of mutant huntingtin aggregation, primary screen, imaging, exon1htt(103Q)mCFP cells, high-content imaging (AID 483);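 further: compound exposure lasted 3 days before fixation; percent of the per-plate median nuclei count of sample wells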
Conditions: exon1htt(103Q)mCFP cell line, aggregate imaging, at 2 µM; measured here: cell count, toxicity
I would appreciate it if you labelled entries Fulfilled when nuclei count is 90% or higher, otherwise Not fulfilled.

QUERY: Answer whether nuclei count of CCOCC(=O)Nc1sc2c(c1C(=O)OCC)CCCC2 is greater than or equal to 90%.
RESULT: Not fulfilled

QUERY: Is it the case that CCOc1cc(-c2nc(-c3ccc(C)nc3OCC)no2)cc(OCC)c1OCC has nuclei count reaching or exceeding 90%?
RESULT: Not fulfilled

QUERY: Does CC(C)CN(CC(C)C)C(=O)CS(=O)(=O)Cc1ccccc1 have a reported nuclei count of at least 90%?
RESULT: Fulfilled

QUERY: Is reported nuclei count greater than or equal to 90% here: COC(=O)CN(c1ccc(C)c(Cl)c1)S(C)(=O)=O
RESULT: Fulfilled

QUERY: Confirm if nuclei count reported for the compound Cn1c(=O)c2ncn(CC(=O)NCCOc3ccc(C(C)(C)C)cc3)c2n(C)c1=O is 90% or above.
RESULT: Fulfilled

QUERY: Is nuclei count for CCOC(=O)N1CCN(c2c(NCCCOC(C)C)c(=O)c2=O)CC1 at or above 90%?
RESULT: Fulfilled

###

So I've got a bunch of compounds here, and I need their fluorescence slope values.
Molecular target: Muscarinic acetylcholine receptor M4 (Homo sapiens)
Assay: compounds altering M4/GIRK thallium flux, either direction, primary screen, M4 allosteric agonist project, cell-based, HEK293 M4/GIRK, BTC-AM (AID 625);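 further: thallium influx through GIRK channels coupled to M4 in HEK293 cells with BTC-AM dye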
Conditions: at 10 µM, actives lie on both sides
When you answer, write just the number.

QUERY: For COc1ccc(N2C(=O)CC(N(Cc3ccc(S(N)(=O)=O)cc3)C(C)=O)C2=O)cc1 (centres undefined) , what is its reported fluorescence slope?
RESULT: 0.00578

QUERY: # get_value(readout='fluorescence slope', item= COc1ccc(C(O)C(CN2CCOCC2)c2ccccc2)cc1 (centres undefined) )
RESULT: 0.00559

QUERY: # lookup: fluorescence slope of CN(C)c1ccc(NC(=O)c2sc(SCC(=O)Nc3nccs3)nc2N)cc1
RESULT: 0.00686

QUERY: Suppose we examine the compound CN(C)CCCOC(=O)c1ccc(Cl)cc1Cl ; what fluorescence slope value has been reported?
RESULT: 0.00455

QUERY: Quick one: fluorescence slope for CCOc1ccc2c(c1)n([O-])c1c([n+]2=O)CCCC1 ?
RESULT: 0.0052

QUERY: // query fluorescence slope value for entry CN1CC2(C)CN(C(c3ccccc3)c3ccccc3)CC(C)(C1)C2O (centres undefined)
RESULT: 0.00415

QUERY: So what's the measured fluorescence slope for this one? COc1cc(C2Nc3cccc4cccc(c34)N2)cc(OC)c1OC(C)=O
RESULT: 0.00327

QUERY: Bench note: what fluorescence slope did Cc1cccc(-n2ncc3c(NCCN4CCOCC4)ncnc32)c1 show?
RESULT: 0.00826

QUERY: Would you mind telling me what fluorescence slope value was observed for CCOc1ccc(C2C=C(c3ccccc3)Nc3ncnn32)cc1 (centres undefined) ?
RESULT: 0.00687

QUERY: Consider the compound shown here: CCOc1cccc(N2C(=O)CC(N(CCc3ccc(OC)c(OC)c3)C(=O)CC)C2=O)c1 (centres undefined) What is its recorded fluorescence slope?
RESULT: 0.00547

QUERY: # input compound: CCCCC(CCC(=O)Nc1ccc(C(=O)OCC)cc1)C(=O)O (centres undefined) ; wanted: its fluorescence slope
RESULT: 0.00338

QUERY: What does the record list as fluorescence slope for O=C1C(=O)N(CCCn2ccnc2)C(c2ccccn2)/C1=C(/O)c1ccccc1 (centres undefined) ?
RESULT: 0.00446

QUERY: If you can, please state the reported fluorescence slope value of COc1ccc(C2CC(c3ccccc3)Nc3nc(N)nn32)cc1 (centres undefined) .
RESULT: 0.00558

QUERY: Need fluorescence slope, item CC1(C)CC(=O)C2=C(C1)OC(N)=C(C#N)C21C(=O)N(CN2CCOCC2)c2ccccc21 (centres undefined)
RESULT: 0.00562

QUERY: Suppose we examine the compound CC1(C)Cc2c(C#N)c(SCc3nc4ccccc4[nH]3)nc(N3CCOCC3)c2CO1 ; what fluorescence slope value has been reported?
RESULT: 0.00539

QUERY: Which fluorescence slope reading was recorded for the compound COCc1[nH]nc2c1C(c1sccc1C)C(C#N)=C(N)O2 (centres undefined) ?
RESULT: 0.00573

QUERY: For the compound CC(C)Sc1nnc2n(CCc3ccccc3)c(=O)c3c4c(sc3n12)COC(C)(C)C4 , what fluorescence slope is on record?
RESULT: 0.00702

QUERY: Any idea what fluorescence slope was measured for COC(=O)c1ccc(C2/C(=C(\O)c3ccc(OC)c(C)c3)C(=O)C(=O)N2c2cc(C)on2)cc1 (centres undefined) ?
RESULT: 0.00525

QUERY: Requested field: fluorescence slope. Item: CCOc1ccc(-c2nc(C#N)c(N3CCN(CC)CC3)o2)cc1
RESULT: 0.00446

QUERY: Need fluorescence slope of CC(NC(=O)c1ccc(=O)oc1)c1ccccc1 (centres undefined) , thanks.
RESULT: 0.00521

QUERY: Give the measured fluorescence slope of CCOC(=O)NC(Nc1cc(C)on1)(C(F)(F)F)C(F)(F)F .
RESULT: 0.00511

QUERY: If you can, please state the reported fluorescence slope value of O=S(=O)(c1cccc2nsnc12)N1CCN(C/C=C/c2ccccc2)CC1 .
RESULT: 0.00411

QUERY: Recorded fluorescence slope of COC(=O)c1ccc(C2/C(=C(/O)c3ccc(OC)cc3)C(=O)C(=O)N2Cc2ccco2)cc1 (centres undefined) , please.
RESULT: 0.0058

QUERY: Quick one: fluorescence slope of O=C1CCCN1c1ccc(S(=O)(=O)NCc2ccco2)cc1 ?
RESULT: 0.00466

QUERY: What value of fluorescence slope has been reported for the following compound? CCCCCCOc1ccc(N2C(=O)CC(N3CCN(C(=O)c4ccco4)CC3)C2=O)cc1 (centres undefined)
RESULT: 0.00531

QUERY: Endpoint output: fluorescence slope of CC(C)c1[nH]c(=O)c(C#N)c2c1CSC(C)(C)C2 . Value?
RESULT: 0.0036

QUERY: Name the recorded fluorescence slope for O=C1C(=O)N(Cc2cccnc2)C(c2ccccn2)/C1=C(/O)c1ccccc1 (centres undefined) .
RESULT: 0.00562

QUERY: Please look up its fluorescence slope: CCCOc1ccc(C2/C(=C(/O)c3ccccc3)C(=O)C(=O)N2CCCN(C)C)cc1OC (centres undefined)
RESULT: 0.00492

QUERY: Name the reported fluorescence slope value associated with the compound CCC(=O)Nc1c(C#N)c2nc3ccccc3nc2n1C1CCCCC1
RESULT: 0.00526
